Molecular target: 5-hydroxytryptamine receptor 5A (Homo sapiens)
Experiment: activation of human 5-HT5A receptor – cell-based, luminescence, full-deck HTS, counter-screen for OPRM1-OPRD1 heterodimer agonist project, primary screen (AID 504692);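 also: 0% = cells with vehicle only and 100% = reference agonist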
Conditions: HTR5A agonist assay, at 9.3 µM, stronger effect = higher value
The campaign covered roughly 340,000 compounds. About 2,000 (0.59%) were called active. The list comes from a sample in which actives are over-represented; it also holds close analogues and randomly drawn compounds.
property-measured: activation (%)

1. COc1ccc(S(=O)(=O)NCc2ccc(C(=O)N3CCC4(CC3)OCCO4)cc2)cc1    3.27
2. C[C@]12CC[C@H](O)C[C@H]1CC[C@@H]1C2CC[C@]2(C)[C@@H](C3=CC(=O)OC3)[C@@H](O)C[C@]12O (some centres not stated)    16.5
3. CCCCCCCCCCCCn1ccc(=N)cc1    14.5
4. COC(=O)C(O)(c1ccc(NC(=O)c2ccco2)c(OC)c1)C(F)(F)F (configuration not stated)    -2.39
5. O=C(Cc1ccccc1)N1CCN(C2CCCCCC2)CC1    1.91
6. Cc1ccc(-c2cc(C(=O)N3CCC4(CC3)OCCO4)no2)cc1    1.14
7. CC(C)Oc1cccc(C(=O)C2CCCN(C3CCOCC3)C2)c1 (configuration not stated)    3.38
